- target.under.test: recombinant METTL3/METTL14 complex (Homo sapiens)
- protocol.text: METTL3/14 Scintillation Proximity Assay (SPA), RNA methyltransferase activity
- reported.conditions: 5.31 nM METTL3/14 complex, 250 nM RNA substrate, 1 μM 3H-SAM, 90 min; for compounds marked * best of the two separated forms
pIC50: −log10 of the molar value.
Reported pIC50 values follow for various molecules

Worked cases, answers included:
c1ncc(N2CCCC2)cc1-c1cn(C2(c3ccc(N4CCC[C@@H](NCC5CC5)C4)cn3)COC2)nn1 :: ≥ 7.30
COc1cc(-c2cn(Cn3cc(F)c(N4CCCC(NCC5CCC5)C4)cc3=O)nn2)c2cn[nH]c2c1 (stereo not shown) :: 5.46 to 6.30
CC(NC(=O)c1cc(=O)n2ccccc2n1)c1ccc(N2CCC[C@@H](NCC3CCC3)C2)nc1 (stereo partly shown) :: 6.30 to 7.30
O=C(Nc1cncc(N2CCCC2)n1)C1(c2ccc(N3CCC[C@@H](NCC4CCC4)C3)cc2)COC1 :: ≥ 7.30
FC1(F)CC(c2ccc(N3CCC[C@@H](NCC4CC4)C3)cn2)(n2cc(-c3cncc(C4CC4)c3)nn2)C1 :: ≥ 7.30
CC(c1ccc(N2CCC[C@@H](NCC3CC3)C2)cn1)n1cc(-c2cncc(N3CCCC3)n2)nn1 (single isomer, unassigned) :: ≥ 7.30

From here, focus on the item given below.
Sure, the documented pIC50 for COc1cncc(-c2cn(Cc3ccc(N4CCCC(C)(NCC5CCC5)C4)nn3)nn2)c1 (stereo not shown) is 6.30 to 7.30

###

- target.under.test: recombinant METTL3/METTL14 complex (Homo sapiens)
- protocol.text: METTL3/14 Scintillation Proximity Assay (SPA), RNA methyltransferase activity
- reported.conditions: 5.31 nM METTL3/14 complex, 250 nM RNA substrate, 1 μM 3H-SAM, 90 min; for compounds marked * best of the two separated forms
measured.endpoint: IC50

Worked cases, answers included:
CC1(CN[C@@H]2CCCN(c3ccc(C4(n5cc(-c6cncc(C7CC7)c6)nn5)COC4)nc3)C2)CC1 :: ≤ 50 nM
CC(n1cnc(-c2cncc(N(C)C)c2)c1)n1ccc(N2CCC[C@@H](NCC3CC3)C2)cc1=O (single isomer, unassigned) :: ≤ 50 nM

Sure, the documented IC50 for Cc1cncc(-c2cn(C(C)n3ccc(N4CCC[C@@H](NCC5CC5)C4)cc3=O)nn2)n1 (single isomer, unassigned) is 50 to 500 nM

###

- target.under.test: recombinant METTL3/METTL14 complex (Homo sapiens, UniProt Q86U44)
- Sequence (Q86U44 whole entry): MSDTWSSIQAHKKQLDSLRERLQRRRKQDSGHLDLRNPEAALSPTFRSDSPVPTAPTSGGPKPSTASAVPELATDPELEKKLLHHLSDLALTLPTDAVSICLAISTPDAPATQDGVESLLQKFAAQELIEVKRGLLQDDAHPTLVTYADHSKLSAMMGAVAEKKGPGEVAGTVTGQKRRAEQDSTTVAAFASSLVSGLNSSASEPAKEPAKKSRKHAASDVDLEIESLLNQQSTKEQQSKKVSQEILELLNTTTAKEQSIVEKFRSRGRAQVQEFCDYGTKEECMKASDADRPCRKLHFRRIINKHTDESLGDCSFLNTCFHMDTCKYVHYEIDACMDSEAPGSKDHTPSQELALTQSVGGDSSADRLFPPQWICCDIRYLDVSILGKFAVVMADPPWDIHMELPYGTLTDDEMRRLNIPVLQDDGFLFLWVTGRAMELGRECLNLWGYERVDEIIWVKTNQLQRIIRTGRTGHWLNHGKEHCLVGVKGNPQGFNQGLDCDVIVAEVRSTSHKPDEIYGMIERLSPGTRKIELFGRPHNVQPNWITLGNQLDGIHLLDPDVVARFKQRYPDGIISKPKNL
- Sequence (Q9HCE5 whole entry partner): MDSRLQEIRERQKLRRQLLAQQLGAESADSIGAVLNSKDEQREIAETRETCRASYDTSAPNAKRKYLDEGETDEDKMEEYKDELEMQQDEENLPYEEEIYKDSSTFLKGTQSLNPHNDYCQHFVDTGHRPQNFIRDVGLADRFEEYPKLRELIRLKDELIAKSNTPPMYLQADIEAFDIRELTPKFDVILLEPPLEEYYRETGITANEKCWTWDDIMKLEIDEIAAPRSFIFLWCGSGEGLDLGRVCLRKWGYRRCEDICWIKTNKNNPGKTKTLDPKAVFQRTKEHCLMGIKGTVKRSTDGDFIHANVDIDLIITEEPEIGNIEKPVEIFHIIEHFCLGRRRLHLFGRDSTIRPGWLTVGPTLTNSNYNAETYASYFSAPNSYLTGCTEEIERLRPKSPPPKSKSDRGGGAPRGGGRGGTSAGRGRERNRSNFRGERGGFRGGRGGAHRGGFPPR
- protocol.text: METTL3/14 Scintillation Proximity Assay (SPA), RNA methyltransferase activity
- reported.conditions: 5.31 nM METTL3/14 complex, 250 nM RNA substrate, 1 μM 3H-SAM, 90 min; for compounds marked * best of the two separated forms
measured.endpoint: IC50

COc1cnc(C)c(-c2cn(C(C)n3ccc(N4CCC[C@@H](NCC5CCC5)C4)cc3=O)nn2)c1 (stereo partly shown) :: ≤ 50 nM
CC(c1cnn(-c2cc(N3CCCC3)cnn2)c1)n1ccc(N2CCC[C@@H](NCC3CC3)C2)cc1=O (single isomer, unassigned) :: ≤ 50 nM
COc1cncc(-c2cn(C(C)(C)c3ccc(N4CCC[C@@H](NCC5CCC5)C4)nn3)nn2)c1 :: ≤ 50 nM
CC(c1ccc(N2CCC[C@@H](NCC3CCC3)C2)nn1)n1cc(-c2cncc(N3CCCC3)n2)nn1 (single isomer, unassigned) :: ≤ 50 nM

Sure, the documented IC50 for O=C(Nc1cc(=O)n2ccccc2n1)C1(c2ccc(N3CCC[C@@H](NCC45CC(F)(C4)C5)C3)cn2)COC1 is ≤ 50 nM

Sure, the documented IC50 for CCN(C)c1cncc(-c2cn(C(C)n3ccc(N4CCC[C@@H](NCC5CC5)C4)cc3=O)nn2)c1 (stereo partly shown) is ≤ 50 nM

Sure, the documented IC50 for c1cc(C2(c3nnc(-c4cncc(N5CCCC5)n4)s3)COC2)ncc1N1CCC[C@@H](NCC2CC2)C1 is ≤ 50 nM

###

- target.under.test: recombinant METTL3/METTL14 complex (Homo sapiens, UniProt Q86U44)
- Construct: purchased Active Motif 311970; host or cells: Sf9 cells
- protocol.text: METTL3/14 Scintillation Proximity Assay (SPA), RNA methyltransferase activity
- Format: biochemical
- reported.conditions: 5.31 nM METTL3/14 complex, 250 nM RNA substrate, 1 μM 3H-SAM, 90 min; for compounds marked * best of the two separated forms
pIC50: −log10 of the molar value.
Reported pIC50 values follow for various compounds

Worked cases, answers included:
COc1cncc(-c2cn(Cc3ccc(N4CCCCC(NCC5CCC5)C4)nn3)nn2)c1 (stereo not shown) :: 6.30 to 7.30
COc1cc(-c2cn(Cc3ccc(N4CCCC(NCC56CC(C)(C5)C6)C4)nn3)nn2)c2cn[nH]c2c1 (stereo not shown) :: ≥ 7.30
CCC(NC(=O)c1cc(=O)n2ccccc2n1)c1ccc(N2CCC[C@@H](NCC3CCC3)C2)nn1 (single isomer, unassigned) :: ≥ 7.30

Sure, the documented pIC50 for COc1cncc(-c2cn(C3(c4ccc(N5CCC[C@@H](NCC6CC6)C5)cn4)COC3)nn2)c1 is ≥ 7.30

###

Reported IC50 values follow for various molecules
- target.under.test: recombinant METTL3/METTL14 complex (Homo sapiens)
- protocol.text: METTL3/14 Scintillation Proximity Assay (SPA), RNA methyltransferase activity
- reported.conditions: 5.31 nM METTL3/14 complex, 250 nM RNA substrate, 1 μM 3H-SAM, 90 min; for compounds marked * best of the two separated forms

CN(C)c1cncc(-c2cn(Cc3ccc(N4CCC[C@@H](NCC5CC5)C4)nn3)nn2)c1 :: ≤ 50 nM
O=C(NCc1ccc(N2CCC[C@@H](NCC3CC3)C2)nn1)c1cc(=O)n2ccccc2n1 :: 50 to 500 nM
COc1cncc(-c2cn(Cc3ccc(N4CCC(F)(F)C(NCC5CCC5)C4)nn3)nn2)c1 (stereo not shown) :: 50 to 500 nM
CC(c1ccc(N2CCC[C@@H](NCC3CCC3)C2)cn1)n1cc(-c2cc(=O)n3ccccc3n2)nn1 (mixture of isomers) :: ≤ 50 nM
COc1cncc(-c2cn(C(C)c3ccc(N4CCC[C@@H](NCC5CC5)C4)cn3)nn2)n1 (stereo partly shown) :: ≤ 50 nM

Per the reported recombinant METTL3/METTL14 complex (Homo sapiens) data, O=C(Nc1cc(=O)n2ccccc2n1)C1(c2ccc(N3CCC[C@@H](NCC4CCC4)C3)nc2)COC1 has IC50 of ≤ 50 nM

Per the reported recombinant METTL3/METTL14 complex (Homo sapiens) data, FC(F)(F)C1(CN[C@@H]2CCCN(c3ccc(C4(n5cc(-c6cncc(C7CC7)c6)nn5)COC4)nc3)C2)CC1 has IC50 of ≤ 50 nM

###

- target.under.test: recombinant METTL3/METTL14 complex (Homo sapiens)
- protocol.text: METTL3/14 Scintillation Proximity Assay (SPA), RNA methyltransferase activity
- reported.conditions: 5.31 nM METTL3/14 complex, 250 nM RNA substrate, 1 μM 3H-SAM, 90 min; for compounds marked * best of the two separated forms
Reported IC50 values follow for various compounds

Worked cases, answers included:
COc1cncc(-c2cc(C(C)n3ccc(N4CCC[C@@H](NCC5CCC5)C4)cc3=O)on2)c1 (mixture of isomers) [Compound 130] :: ≤ 50 nM
CC(n1cc(-c2cncc(N3CCC4(CC4)C3)n2)nn1)n1ccc(N2CCC[C@@H](NCC3CC3)C2)cc1=O (stereo partly drawn) [Compound 235] :: ≤ 50 nM
CNc1cnnc(-c2cn(C(C)n3ccc(N4CCC[C@@H](NCC5CCC5)C4)cc3=O)nn2)c1 (mixture of isomers) [Compound 122] :: ≤ 50 nM
CC(C(=O)Nc1cncc(N(C)C)c1)n1ccc(N2CCC[C@@H](NCC3CCC3)C2)cc1=O (mixture of isomers) [Compound 162] :: 50 to 500 nM
CC(n1cc(-c2cncc(OCC(F)(F)F)c2)nn1)n1ccc(N2CCC[C@@H](NCC3CCC3)C2)cc1=O (single isomer, unassigned) [Compound 200] :: ≤ 50 nM

From here, focus on the item given below.
Sure, the documented IC50 for COc1cncc(-c2cn(C(c3ccc(N4CCC[C@@H](NCC5CCC5)C4)nn3)C(F)(F)F)nn2)c1 (single isomer, unassigned) [Compound 064] is ≤ 50 nM

###

- target.under.test: recombinant METTL3/METTL14 complex (Homo sapiens)
- protocol.text: METTL3/14 Scintillation Proximity Assay (SPA), RNA methyltransferase activity
- reported.conditions: 5.31 nM METTL3/14 complex, 250 nM RNA substrate, 1 μM 3H-SAM, 90 min; for compounds marked * best of the two separated forms
Reported IC50 values follow for various molecules

CC(n1cc(-c2cncc(N(C)C(F)(F)F)c2)nn1)n1ccc(N2CCC[C@@H](NCC3CC3)C2)cc1=O (single isomer, unassigned) :: ≤ 0.05 µM

Sure, the documented IC50 for CC(c1ccc(N2CCC[C@@H](NCC3CC3)C2)nn1)n1cc(-c2cncc(C3CC3)c2)nn1 (single isomer, unassigned) is ≤ 0.05 µM

Sure, the documented IC50 for O=C(Nc1cnc2[nH]ccc2c1)C1(c2ccc(N3CCC[C@@H](NCC4CCC4)C3)cn2)COC1 is 0.05 to 0.5 µM

Sure, the documented IC50 for c1cc(C2(n3cc(-c4cncc(N5CCCC5)n4)nn3)COC2)ncc1N1CCCC(NCC2CCC2)C1 (stereo in doubt) is ≤ 0.05 µM

Sure, the documented IC50 for CC(NC(=O)c1cc(=S)n2ccccc2n1)c1ccc(N2CCC[C@@H](NCC3CCC3)C2)nn1 (single isomer, unassigned) is ≤ 0.05 µM

Sure, the documented IC50 for COc1cncc(-c2cn(C(C)c3ccc(N4CCC[C@@H](NCC5CCC5)C4)cc3)nn2)c1 (mixture of isomers) is ≤ 0.05 µM

Sure, the documented IC50 for CC1(CN[C@@H]2CCCN(c3ccc(C4(C(=O)Nc5cc(=O)n6ccccc6n5)COC4)nc3)C2)CC1 is ≤ 0.05 µM

Sure, the documented IC50 for CNc1cncc(-c2cn(C(C)n3ccc(N4CCC[C@@H](NCC5CCC5)C4)cc3=O)nn2)n1 (stereo partly drawn) is ≤ 0.05 µM
